# target_desc: 5-HT1A receptors (Rattus norvegicus, UniProt P19327)
# Construct: Hippocampal tissue from the brains of male Sprague-Dawley rats; from tissue; host or cells: rat hippocampus membranes
# Sequence (P19327 1-422): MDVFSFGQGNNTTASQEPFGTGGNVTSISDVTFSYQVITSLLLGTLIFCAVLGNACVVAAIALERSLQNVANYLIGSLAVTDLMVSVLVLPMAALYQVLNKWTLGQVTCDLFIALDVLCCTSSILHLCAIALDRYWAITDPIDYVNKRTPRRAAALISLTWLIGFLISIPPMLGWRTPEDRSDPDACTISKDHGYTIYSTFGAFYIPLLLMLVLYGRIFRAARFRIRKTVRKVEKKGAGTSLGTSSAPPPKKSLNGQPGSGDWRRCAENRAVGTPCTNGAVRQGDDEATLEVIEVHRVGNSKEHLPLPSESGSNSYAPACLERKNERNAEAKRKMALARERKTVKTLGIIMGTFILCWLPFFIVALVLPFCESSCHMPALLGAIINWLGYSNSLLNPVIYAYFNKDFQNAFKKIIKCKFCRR
# test: inhibition of [3H]8-OH-DPAT binding to 5-HT1A receptors in rat hippocampal tissue
# experimental_setup: at 10^-6 M; rat hippocampus, [3H]8-OH-DPAT; read-out: % displacement of radio ligand, 5-HT1A
Exercise: for every item that follows, state its recorded inhibition at 1 µM.
Note: unit % is implicit; provide only the numeric part.

Notebook: "CSc1ncccc1C(=O)NCC1CCN(C[C@H]2COc3cccc(Cl)c3O2)CC1" , inhibition at 1 µM read as 95

Notebook: Nc1ncccc1C(=O)NCC1CCN(CC2COc3ccccc3O2)CC1 (centres unmarked) , inhibition at 1 µM read as 90

Notebook: "Cc1ncccc1C(=O)NCC1CCN(C[C@H]2COc3cccc(C(F)(F)F)c3O2)CC1" , inhibition at 1 µM read as 86

Notebook: "O=C(NCC1CCN(C[C@H]2COc3ccc(Br)cc3O2)CC1)c1cncc(Br)c1" , inhibition at 1 µM read as 85

Notebook: "O=C(c1ccccn1)N1CCC(CNC[C@H]2COc3ccc(Cl)cc3O2)CC1" , inhibition at 1 µM read as 95

Notebook: "Nc1ncccc1C(=O)NCC1CCN(C[C@H]2COc3ccc(F)c(F)c3O2)CC1" , inhibition at 1 µM read as 90

Notebook: "O=C(NCC1CCN(C[C@H]2COc3ccc(Cl)cc3O2)CC1)c1cncc(Br)c1" , inhibition at 1 µM read as 92

Notebook: "Cc1ccc2c(c1)O[C@@H](CN1CCC(CNC(=O)c3cncc(Br)c3)CC1)CO2" , inhibition at 1 µM read as 87

Notebook: "O=C(NCC1CCN(C[C@H]2COc3cccc(C(F)(F)F)c3O2)CC1)c1ccc(-n2cccc2)nc1" , inhibition at 1 µM read as 75

Notebook: "CSc1ncccc1C(=O)NCC1CCN(C[C@H]2COc3ccc(Cl)cc3O2)CC1" , inhibition at 1 µM read as 68

Notebook: "Cc1ccc2c(c1)O[C@@H](CN1CCC(CNC(=O)c3cccnc3C)CC1)CO2" , inhibition at 1 µM read as 63

Notebook: "Cc1ccc2c(c1)O[C@@H](CN1CCC(CNC(=O)c3cccnc3)CC1)CO2" , inhibition at 1 µM read as 78

Notebook: "O=C(NCC1CCN(C[C@H]2COc3cccc(Cl)c3O2)CC1)c1ccc(-n2cccc2)nc1" , inhibition at 1 µM read as 97

Notebook: "Cc1ncccc1C(=O)NCC1CCN(C[C@H]2COc3ccc(Br)cc3O2)CC1" , inhibition at 1 µM read as 80

Notebook: "O=C(NCC1CCN(C[C@H]2COc3ccc(Br)cc3O2)CC1)c1cccnc1" , inhibition at 1 µM read as 95

Notebook: "CSc1ncccc1C(=O)NCC1CCN(C[C@H]2COc3ccc(F)cc3O2)CC1" , inhibition at 1 µM read as 64

Notebook: "O=C(NCC1CCN(C[C@H]2COc3cccc(C(F)(F)F)c3O2)CC1)c1cncc(Br)c1" , inhibition at 1 µM read as 88

Notebook: "CSc1ncccc1C(=O)NCC1CCN(C[C@H]2COc3ccc(Br)cc3O2)CC1" , inhibition at 1 µM read as 88

Notebook: "O=C(NCC1CCN(C[C@H]2COc3ccc(F)cc3O2)CC1)c1cccnc1" , inhibition at 1 µM read as 76

Notebook: "Nc1ncccc1C(=O)NCC1CCN(C[C@H]2COc3cccc(Cl)c3O2)CC1" , inhibition at 1 µM read as 97

* * *

Exercise: for every item that follows, state its recorded inhibition at 1 µM.
# target_desc: D2 dopamine receptors (Rattus norvegicus, UniProt P61169)
# Construct: Striatal tissue from the brains of male Charles River CD rats; from tissue; host or cells: rat striatum membranes
# Sequence (P61169 whole entry): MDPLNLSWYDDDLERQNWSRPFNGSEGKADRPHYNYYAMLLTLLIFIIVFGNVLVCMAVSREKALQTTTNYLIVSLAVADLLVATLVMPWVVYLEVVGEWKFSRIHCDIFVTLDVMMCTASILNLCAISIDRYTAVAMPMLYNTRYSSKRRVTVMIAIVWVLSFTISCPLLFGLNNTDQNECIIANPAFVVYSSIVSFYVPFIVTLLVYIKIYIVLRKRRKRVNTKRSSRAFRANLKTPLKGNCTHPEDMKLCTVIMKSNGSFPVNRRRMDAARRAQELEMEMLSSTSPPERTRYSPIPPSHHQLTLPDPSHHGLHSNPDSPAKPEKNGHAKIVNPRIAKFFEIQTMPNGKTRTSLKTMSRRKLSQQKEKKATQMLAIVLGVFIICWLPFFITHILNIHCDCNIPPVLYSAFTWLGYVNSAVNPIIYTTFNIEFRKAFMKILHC
# test: inhibition of tritiated (S)-sulpiride binding to D2 dopamine receptors in rat striatal tissue
# experimental_setup: at 10^-6 M; rat striatum, tritiated (S)-sulpiride; read-out: % displacement of radio ligand, D2
Note: unit % is implicit; provide only the numeric part.

Notebook: "CSc1ncccc1C(=O)NCC1CCN(C[C@H]2COc3ccc(Cl)cc3O2)CC1" , inhibition at 1 µM read as 70

Notebook: "O=C(NCC1CCN(C[C@H]2COc3ccc(Cl)cc3O2)CC1)c1ccc(-n2cccc2)nc1" , inhibition at 1 µM read as 91

Notebook: "Cc1ccc2c(c1)O[C@@H](CN1CCC(CNC(=O)c3ccc(-n4cccc4)nc3)CC1)CO2" , inhibition at 1 µM read as 80

Notebook: Nc1ncccc1C(=O)NCC1CCN(CC2COc3ccccc3O2)CC1 (stereo not shown) , inhibition at 1 µM read as 84

Notebook: "O=C(NCC1CCN(C[C@H]2COc3cccc(C(F)(F)F)c3O2)CC1)c1ccc(-n2cccc2)nc1" , inhibition at 1 µM read as 100

Notebook: "CSc1ncccc1C(=O)NCC1CCN(C[C@H]2COc3cccc(Cl)c3O2)CC1" , inhibition at 1 µM read as 101

Notebook: "O=C(NCC1CCN(C[C@H]2COc3ccc(F)cc3O2)CC1)c1cccnc1" , inhibition at 1 µM read as 68

Notebook: "O=C(NCC1CCN(C[C@H]2COc3cccc(Cl)c3O2)CC1)c1cncc(Br)c1" , inhibition at 1 µM read as 101

Notebook: "Cc1ccc2c(c1)O[C@@H](CN1CCC(CNC(=O)c3cccnc3)CC1)CO2" , inhibition at 1 µM read as 85

Notebook: "Nc1ncccc1C(=O)NCC1CCN(C[C@H]2COc3cccc(OS(=O)(=O)C(F)(F)F)c3O2)CC1" , inhibition at 1 µM read as 101

* * *

# target_desc: D2 dopamine receptors (Rattus norvegicus, UniProt P61169)
# Construct: Striatal tissue from the brains of male Charles River CD rats
# test: inhibition of tritiated (S)-sulpiride binding to D2 dopamine receptors in rat striatal tissue
# experimental_setup: rat striatum, tritiated (S)-sulpiride 1 nM, 4° C., 40 min
endpoint_name: pKi
// returns pKi (minus log10 of molar concentration), number only

Notebook: Nc1ncccc1C(=O)NCC1CCN(C[C@H]2COc3ccccc3O2)CC1 [Example 15] , pKi read as 7.19

Notebook: Cc1ccc(C(=O)NCC2CCN(C[C@H]3COc4ccc(Cl)cc4O3)CC2)c(N)n1 [Example 14] , pKi read as 7.36

Notebook: COc1cccc2c1OC(CN1CCC(CNC(=O)c3cccnc3N)CC1)CO2 (stereo not drawn) [Example 11] , pKi read as 7.39

Notebook: O=C(NCC1CCN(C[C@H]2COc3cccc(Cl)c3O2)CC1)c1cccnc1 [Example 24] , pKi read as 7.80

Notebook: Nc1ccsc1C(=O)NCC1CCN(CC2COc3ccccc3O2)CC1 (stereo not drawn) [Example 16] , pKi read as 7.17

Notebook: Cc1cccc2c1O[C@@H](CN1CCC(CNC(=O)c3cccnc3N)CC1)CO2 [Example 13] , pKi read as 7.48

Notebook: Nc1ncccc1C(=O)NCC1CCN(CC2COc3ccc(F)cc3O2)CC1 (stereo not drawn) [Example 10] , pKi read as 6.96

Notebook: Nc1ncccc1C(=O)NCC1CCN(C[C@H]2COc3cccc(C(F)(F)F)c3O2)CC1 [Example 20] , pKi read as 7.92

Notebook: O=C(NCC1CCN(C[C@H]2COc3ccc(Cl)cc3O2)CC1)c1cccc2cccnc12 [Example 23] , pKi read as 7.10

* * *

# target_desc: 5-HT1A receptors (Rattus norvegicus)
# Sequence (P19327 1-422): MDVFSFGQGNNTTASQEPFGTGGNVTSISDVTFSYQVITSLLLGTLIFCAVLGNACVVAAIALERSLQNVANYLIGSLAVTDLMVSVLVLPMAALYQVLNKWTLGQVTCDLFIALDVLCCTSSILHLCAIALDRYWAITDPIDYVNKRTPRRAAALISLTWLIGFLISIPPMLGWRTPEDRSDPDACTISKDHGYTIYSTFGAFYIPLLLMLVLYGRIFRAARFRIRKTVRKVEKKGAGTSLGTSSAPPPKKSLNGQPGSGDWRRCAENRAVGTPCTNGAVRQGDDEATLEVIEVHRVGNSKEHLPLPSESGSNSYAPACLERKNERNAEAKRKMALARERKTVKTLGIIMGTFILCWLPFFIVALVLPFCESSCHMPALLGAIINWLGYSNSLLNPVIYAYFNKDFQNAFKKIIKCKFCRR
endpoint_name: pKi
// returns pKi (minus log10 of molar concentration), number only

Notebook: Nc1ncccc1C(=O)NCC1CCN(C[C@H]2COc3cccc(C(F)(F)F)c3O2)CC1 [Example 20] , pKi read as 7.39

Notebook: O=C(NCC1CCN(C[C@H]2COc3ccc(Cl)cc3O2)CC1)c1ccccn1 [Example 12] , pKi read as 7.80

Notebook: Nc1ncccc1C(=O)NCC1CCN(C[C@H]2COc3ccc(Cl)cc3O2)CC1 [Example 1] , pKi read as 7.38

Notebook: Nc1ncccc1C(=O)NCC1CCN(CC2COc3ccc(F)cc3O2)CC1 (stereo not drawn) [Example 10] , pKi read as 7.24

Notebook: Nc1ncccc1C(=O)NCC1CCN(C[C@H]2COc3ccccc3O2)CC1 [Example 15] , pKi read as 7.39

Notebook: Cc1cccc(C(=O)NCC2CCN(C[C@H]3COc4ccc(Cl)cc4O3)CC2)n1 [Example 25] , pKi read as 7.33

Notebook: Nc1ncccc1C(=O)N1CCC(CNCC2COc3ccc(Cl)cc3O2)CC1 (racemic) [Example 19] , pKi read as 7.52

Notebook: Cc1ncccc1C(=O)NCC1CCN(C[C@H]2COc3ccc(Cl)cc3O2)CC1 [Example 18] , pKi read as 7.08

Notebook: COc1cccc2c1OC(CN1CCC(CNC(=O)c3cccnc3N)CC1)CO2 (stereo not drawn) [Example 11] , pKi read as 7.72
